Reference for the values: paper PMC5540273

Here, each record is paired with measured %Inh data.
System: MARK4;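 also: KINOMEscan kinase panel screen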
Conditions: concentration: 1 μM, replicates: in singlicate; n = 1
State the answer as a number, implicitly in %.

The examples below pair each entry with its known result.
- compound: "COc1cc2c(Nc3cccc(NC(=O)c4ccccc4)c3)ncnc2cc1OCCCN1CCOCC1"
  measure.unit: "%"
  %Inh: 22
- compound: "Cl.O=S(=O)(c1cccc(F)c1)c1ccc(Nc2ncnc3cc(Br)sc23)cc1Cl"
  measure.unit: "%"
  %Inh: 1
- compound: "O=C(Nc1ccccc1F)NC1CCN(c2ccnc(Nc3ccc(F)cc3)n2)C1 (stereo not shown)"
  measure.unit: "%"
  %Inh: 0

# context switch: different compound, same %Inh
[in] // query %Inh value for entry `Cc1ccc(O)cc1Nc1cc(C(F)(F)F)nc2ccc(-c3ccncc3)cc12`
[out] 4
